System: Myzus persicae
Assay Name: Myzus persicae spray test (MYZUPE), Chinese cabbage leaf discs
Format: in vivo
Protocol Conditions: after 6 days, application rate 500 g/ha
Experimental Readout: efficacy (%)
Answers are plain numbers, in %.

Sample answers from the record:
Compound	Target System	efficacy / %
CCC(C)Oc1ncc(C(=O)N(C)c2cccnc2)n1C (centres unmarked)	Myzus persicae	100
CN(C(=O)c1cnc(OC2CCCC2)n1C)c1cccnc1	Myzus persicae	90
CN(C(=O)c1cnc(OCc2ccc(F)cc2)n1C)c1cccnc1	Myzus persicae	100
CN(C(=O)c1cnc(OC2CCCCC2)n1C)c1cccnc1	Myzus persicae	90

From here, focus on the item given below.
Considering CN(C(=O)c1cnc(Oc2ccccc2Cl)n1C)c1cccnc1 , its efficacy with Myzus persicae was recorded as 100

----------
System: Myzus persicae
Assay Name: Myzus persicae oral test (MYZUPE O)
Format: in vivo
Protocol Conditions: Myzus persicae, po, 120 h; MYZUPE O, 0.8 ppm, 5 dat; read-out: % efficacy
Please go through the items and note down their Emax at 0.8 ppm.
Answers are plain numbers, in %.

Sample answers from the record:
Molecule	Target System	Emax at 0.8 ppm [%]
CN(C(=O)c1cnc(OCCC(F)(F)F)n1C)c1cccnc1	Myzus persicae	100
CC(C)Oc1ncc(C(=O)N(C)c2cccnc2)n1C	Myzus persicae	90
CN(C(=O)c1cnc(Oc2cc(F)ccc2F)n1C)c1cccnc1	Myzus persicae	90
CN(C(=O)c1cnc(Oc2cnc3ccccc3c2)n1C)c1cccnc1	Myzus persicae	90
O=C(Nc1cccnc1)c1c[nH]cn1 [Comparative Ex. 2, reference compound]	Myzus persicae	0

From here, focus on the item given below.
Value of measured Emax at 0.8 ppm for the entry Cc1nc(C(=O)Nc2cccnc2)c[nH]1 [Comparative Ex. 1, reference compound] : 0

----------
Please go through the items and note down their LogP-neutral.
Assay Name: log P by HPLC on reversed-phase columns (OECD Guideline 117), neutral range
Assay type: physicochemical
Protocol Conditions: pH 7.8
One number for each entry.

Compound	LogP-neutral
CN(C(=O)c1cnc(OC2CCCCC2)n1C)c1cccnc1 [Example II-22]	2.15
C=CCOc1ncc(C(=O)N(C)c2cccnc2)n1C [Example II-37]	1.38
Cn1c(C(=O)N(c2cccnc2)C2CC2)cnc1Oc1cccc(C(F)(F)F)c1 [Example II-94]	2.59

Hello, I would appreciate it if you could give LogP-neutral for each entry below.
1. Cc1ccc(Oc2ncc(C(=O)N(C)c3cccnc3)n2C)cn1 [Example II-44]
2. Cc1cncc(Oc2ncc(C(=O)N(C)c3cccnc3)n2C)c1 [Example II-54]
3. COc1cc(Oc2ncc(C(=O)N(C)c3cccnc3)n2C)cnc1OC [Example II-64]
4. CCN(C(=O)c1cnc(OC(C)C)n1C)c1cccnc1 [Example II-46]

[1.26, 1.31, 1.49, 1.7]

Hello, I would appreciate it if you could give LogP-neutral for each entry below.
1. CN(C(=O)c1cnc(Oc2cncc(Br)c2)n1C)c1cccnc1 [Example II-67]
2. COc1ncc(Cl)cc1Oc1ncc(C(=O)N(C)c2cccnc2)n1C [Example II-70]

1: 1.62; 2: 2.02

----------
Assay Name: log P by HPLC on reversed-phase columns (OECD Guideline 117), neutral range
Format: physicochemical
Protocol Conditions: HPLC, neutral range pH 7.8
Experimental Readout: LogP-neutral

Sample answers from the record:
Molecule	Result
CN(C(=O)c1cnc(Oc2cccnc2)n1C)c1cccnc1 [Example II-55]	1.08
CN(C(=O)c1cnc(Oc2cncc(C#N)c2)n1C)c1cccnc1 [Example II-62]	1.27
CN(C(=O)c1cnc(Oc2cccnc2Cl)n1C)c1cccnc1 [Example II-66]	1.45
CN(C(=O)c1cnc(Oc2ccccc2Cl)n1C)c1cccnc1 [Example II-13]	1.94

Value of measured LogP-neutral for the entry CCN(C(=O)c1cnc(Oc2ccc(Cl)nc2)n1C)c1cccnc1 [Example II-36] : 1.79

----------
Assay Name: log P by HPLC on reversed-phase columns (OECD Guideline 117), neutral range
Format: physicochemical
Protocol Conditions: pH 7.8
Please go through the items and note down their LogP-neutral.
Numbers only.

Sample answers from the record:
Substance Smiles	Experimental Readout	Numeric Result
CN(C(=O)c1cnc(Oc2ccc(Br)nc2)n1C)c1cccnc1	LogP-neutral	1.63
CN(C(=O)c1cnc(Oc2cc(Cl)cc(C(F)(F)F)c2)n1C)c1cccnc1	LogP-neutral	2.87
CN(C(=O)c1cnc(Oc2cncc(Cl)c2)n1C)c1cccnc1	LogP-neutral	1.57
CN(C(=O)c1cnc(Oc2cccc(S(C)(=O)=O)c2)n1C)c1cccnc1	LogP-neutral	1.31
CCCCSc1cccc(Oc2ncc(C(=O)N(C)c3cccnc3)n2C)c1	LogP-neutral	3.19

Hello, I would appreciate it if you could give LogP-neutral for each entry below.
1. CN(C(=O)c1cnc(Oc2cccc(C(F)(F)F)c2F)n1C)c1cccnc1
2. CN(C(=O)c1cnc(OC2CCCC2)n1C)c1cccnc1
3. CN(C(=O)c1cnc(OCc2ncccn2)n1C)c1cccnc1

1: 2.39; 2: 1.83; 3: 0.53

Value of measured LogP-neutral for the entry CC(=O)Nc1cccc(Oc2ncc(C(=O)N(C)c3cccnc3)n2C)c1 : 1.25

----------
System: Tetranychus urticae
Assay Name: Tetranychus urticae spray test, OP-resistant, bean leaf discs
Assay type: in vivo
Protocol Conditions: after 6 days, application rate 500 g/ha
Please go through the items and note down their efficacy.
Answers are plain numbers, in %.

Substance Smiles	Target System	efficacy (%)
CN(C(=O)c1cnc(Oc2ccc(F)c(Cl)c2)n1C)c1cccnc1	Tetranychus urticae	100
CN(C(=O)c1cnc(Oc2cc(F)ccc2F)n1C)c1cccnc1	Tetranychus urticae	90

Hello, I would appreciate it if you could give efficacy for each entry below.
1. CN(C(=O)c1cnc(OCCC(F)(F)F)n1C)c1cccnc1
2. Cn1c(C(=O)N(c2cccnc2)C2CC2)cnc1Oc1cccc(C(F)(F)F)c1

1: 100; 2: 90

Hello, I would appreciate it if you could give efficacy for each entry below.
1. C=CCOc1ncc(C(=O)N(C)c2cccnc2)n1C
2. CN(C(=O)c1cnc(Oc2cccc(Oc3ccccc3)c2)n1C)c1cccnc1
3. CN(C(=O)c1cnc(Oc2cc(Cl)cc(C(F)(F)F)c2)n1C)c1cccnc1
4. CCCCSc1cccc(Oc2ncc(C(=O)N(C)c3cccnc3)n2C)c1

[90, 100, 90, 100]

----------
Please go through the items and note down their efficacy.
System: Myzus persicae
Assay Name: Myzus persicae spray test (MYZUPE), Chinese cabbage leaf discs
Format: in vivo
Protocol Conditions: after 5 days, application rate 500 g/ha
Answers are plain numbers, in %.

Sample answers from the record:
Substance Smiles	Target System	efficacy / %
CN(C(=O)c1cnc(Oc2cncc(C(F)(F)F)c2)n1C)c1cccnc1	Myzus persicae	90
CN(C(=O)c1cnc(Oc2ccc(F)nc2)n1C)c1cccnc1	Myzus persicae	100
CC(=O)Nc1cccc(Oc2ncc(C(=O)N(C)c3cccnc3)n2C)c1	Myzus persicae	90
CN(C(=O)c1cnc(Oc2cccnc2Cl)n1C)c1cccnc1	Myzus persicae	100
CN(C(=O)c1cnc(Oc2cncc(C#N)c2)n1C)c1cccnc1	Myzus persicae	90

Hello, I would appreciate it if you could give efficacy for each entry below.
1. CN(C(=O)c1cnc(Oc2ccc(C(F)(F)F)nc2)n1C)c1cccnc1
2. CN(C(=O)c1cnc(Oc2cc(Cl)cc(C(F)(F)F)c2)n1C)c1cccnc1
3. Cc1ccc(Oc2ncc(C(=O)N(C)c3cccnc3)n2C)cn1
4. C=CCOc1ncc(C(=O)N(C)c2cccnc2)n1C

1. 90
2. 90
3. 90
4. 100

----------
Assay Name: log P by HPLC on reversed-phase columns (OECD Guideline 117), neutral range
Format: physicochemical
Protocol Conditions: pH 7.8
Experimental Readout: LogP-neutral

Sample answers from the record:
Compound	Result
CN(C(=O)c1cnc(Oc2cnccc2Cl)n1C)c1cccnc1 [Example II-65]	1.4
COc1ccc(Oc2ncc(C(=O)N(C)c3cccnc3)n2C)cn1 [Example II-39]	1.5
CN(C(=O)c1cnc(Oc2ccc(F)c(C(F)(F)F)c2)n1C)c1cccnc1 [Example II-83]	2.42
CN(C(=O)c1cnc(Oc2ccc(Oc3ccc(Oc4ccc(F)nc4)nc3)nc2)n1C)c1cccnc1 [Example II-50]	2.3
CCOc1cccc(Oc2ncc(C(=O)N(C)c3cccnc3)n2C)c1 [Example II-73]	2.1
CCCc1cccc(Oc2ncc(C(=O)N(C)c3cccnc3)n2C)c1 [Example II-77]	2.66
CCC(C)Oc1ncc(C(=O)N(C)c2cccnc2)n1C (stereo not drawn) [Example II-20]	1.75
Cc1cc(Oc2ncc(C(=O)N(C)c3cccnc3)n2C)cnc1Cl [Example II-57]	1.78

Hello, I would appreciate it if you could give LogP-neutral for each entry below.
1. CN(C(=O)c1cnc(Oc2cccc(Oc3ccccc3)c2)n1C)c1cccnc1 [Example II-81]
2. CN(C(=O)c1cnc(Oc2ccc(C(F)(F)F)nc2)n1C)c1cccnc1 [Example II-56]

2.72
1.9

----------
Assay Name: log P by HPLC on reversed-phase columns (OECD Guideline 117), neutral range
Format: physicochemical
Protocol Conditions: pH 7.8
Experimental Readout: LogP-neutral
Answers are plain numbers.

Substance Smiles	Experimental Readout	Numeric Result
CCN(C(=O)c1cnc(Oc2cncc(Cl)c2)n1C)c1cccnc1	LogP-neutral	2.03

Hello, I would appreciate it if you could give LogP-neutral for each entry below.
1. CN(C(=O)c1cnc(Oc2ccc(Oc3ccc(F)nc3)nc2)n1C)c1cccnc1
2. CN(C(=O)c1cnc(OCC(F)(F)F)n1C)c1cccnc1

1. 1.86
2. 0.9
